Entry source: paper PMC5454392

Molecular target: T1, CaBdf1 BD1 (GST-tagged, wild-type) (Candida albicans (strain SC5314 / ATCC …, UniProt Q5A4W8))
T1 chain: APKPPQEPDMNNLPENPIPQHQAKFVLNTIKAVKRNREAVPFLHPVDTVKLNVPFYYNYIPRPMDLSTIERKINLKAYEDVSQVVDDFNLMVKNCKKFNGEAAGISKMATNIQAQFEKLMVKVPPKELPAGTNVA
Test: histone peptide array (Active Motif MODified), 1 uM GST-tagged bromodomain, anti-GST detection, normalized mean intensity
Square brackets hold non-standard residues; d marks the D form. Ends that are not written are not given here. Lys(Me3) = C[N+](C)(C)CCCC[C@H](N)C(=O)O; pS = N[C@@H](COP(=O)(O)O)C(=O)O
Attribute: binding score
// response body must contain only the number

Reference set, count: 6
INSERT INTO results (binder, quantitative_result) VALUES
  ('ART[Lys(Me3)]QTARKSTGGKAPRKQ', 0.00399),
  ('RKSAPATGGVKKPHRYRPG (R K S A P A T G G V Kac K P H R Y R P G) [H3 26-45]', 0.0344),
  ('[pS]GRGK(Ac)QGGKARAK(Ac)AKSRSS [H2a 1-19]', 0.0964),
  ('ARTKQTARKSTGGKAPRKQ (A Rme2a T Kme3 Q T A Rme2a K S T G G K A P R K Q)', 0.00363),
  ('ARTKQTARKSTGGKAPRKQ (A R T K Q T A Rme2a Kac pS pT G G K A P R K Q)', 0.00616),
  ('ARTKQTARKSTGGKAPRKQ (A Rme2a T Kme2 Q T A Rme2s Kac S T G G K A P R K Q)', 0.0435);

We now examine a further binder.
Read the entry PRKQLATKAARKSAPATGG (not fully specified) [H3 16-35] and write its reported binding score.
0.00798
